Organism: Homo sapiens
Assay: To identify inhibition of the IFN signalling (Jak-Stat) pathway via expression of an eGFP reporter gene under the control of an IFN-stimulated response element (ISRE) containing MxA promoter.
Format: functional
Design: scale not given: direction of the effect not stated beside the values
Conditions: 30 µM
Attribute: Percent Effect
Give just the number in %; leave the unit off.

O=C(NCC1CC1)[C@@H]1CCO[C@@H]2CCN(Cc3ccco3)C[C@H]21
5.41
O=c1cc(CN2CCCC(CCc3c(F)cccc3F)C2)[nH]c(=O)[nH]1 (stereo unspecified)
25
O=C(NCCCN1CCCC1)c1n[nH]c(=O)c2ccccc12
11.3
CC(C)C1CN(C(=O)c2nccnc2N)CCS1 (stereo unspecified)
14.5
Cc1nc(CO[C@@H]2CN(Cc3cnn(C)c3)[C@@H]3COC[C@@H]32)cs1
2.98
Clc1cc(CN2CCCC2Cn2cncn2)c2ncccc2c1 (stereo unspecified)
-0.129

Task: Provide one value: measured Percent Effect of Cc1nc(C)n(CC2CCCCN2CC(=O)Nc2nncs2)n1 (stereo unspecified)
Output: -3.85

Task: Provide one value: measured Percent Effect of `Cc1ccc(-c2cc(N)c(=O)n(CC(=O)NCC3CC3)n2)s1`
Output: 11.4

Task: Provide one value: measured Percent Effect of CC(NCc1cccnc1)c1ccc(OCC(=O)NC2CC2)cc1 (stereo unspecified)
Output: -0.549

Task: Provide one value: measured Percent Effect of `COc1c(CNCc2ccc(CN(C)C)cc2)c(C)nn1C`
Output: -11.7

Task: Provide one value: measured Percent Effect of `CC(C)Nc1ncnc2c1CCN(C(=O)c1ccncc1F)CC2`
Output: 4.19
